molecular target: L-lactate dehydrogenase (Plasmodium falciparum (isolate CDC / Honduras)); assay: PfLDH activity inhibition – cell lysate, 3D7 strain, counter-screen for P. falciparum growth inhibition project (AID 2304);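 further: 0% = vehicle and 100% = reference inhibitor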; conditions: P. falciparum 3D7 crude extract, LDH APAD/NBT absorbance; at 2 µM; stronger effect = higher value
Calls of active or inactive are those of the source. How the calls were made is not given here.
Entries and their inhibition

Consider the reported inhibition for these compounds:
COc1cc(Cc2cnc(N)nc2N)cc(OCCNC(=O)OCc2ccccc2)c1OC ... 4% (inactive)
COc1ccc(/C=C/C(=O)NCCCCCN2CCC(c3c[nH]c4ccccc34)CC2)cc1O ... -5% (inactive)
C=CCc1cc(C)ccc1OCCCON1C(N)=NC(N)=NC1(C)C ... -6% (inactive)

Consider the compound shown here: CCc1cc(Br)c(CNCCCNc2cc(=O)c3ccccc3[nH]2)s1 What is its recorded inhibition?
-10% (inactive)

Same thing, different compound: Cc1cc(NCc2ccc(F)cc2)nc2cc(O)ccc12
-7% (inactive)

Same thing, different compound: CCOc1cc(C(=O)N[C@@H](Cc2ccccc2)[C@H](O)CNC(C)(C)c2cccc(OC)c2)cc(N2CCCS2(=O)=O)c1
-3% (inactive)

Same thing, different compound: Cc1nc(-c2nc(N3CCC(C(N)=O)CC3)ncc2-c2ccsc2)sc1C
-11% (inactive)

Same thing, different compound: Cc1cc(F)ccc1[C@H]1C[C@H](N2CCOCC2)CCN1C(=O)N(C)[C@@H](C)c1cc(C(F)(F)F)cc(C(F)(F)F)c1
3% (inactive)

Same thing, different compound: Cc1cc(=O)c(C2CCC(c3ccc(Cl)cc3)CC2)c(C)[nH]1 (stereo not given)
0% (inactive)

Same thing, different compound: Nc1cccc(C=CC(=O)Nc2ccnc3ccccc23)c1
-1% (inactive)

====

assay: HepG2 cytotoxicity, primary screen, cytotoxicity control for P. falciparum antimalarial project, cell-based, ATP luminescence (AID 2303); details: HepG2 viability, 24-48 h, at 10 µM;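 further: 0% = DMSO wells and 100% = digitonin-killed cells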
The source made the active and inactive calls.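 The calls were made as follows: active = inhibition above 50%; inactive = the rest.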
// one of true (active), false (inactive), no free text

Use the examples below as a reference point.
COc1cccc(NC(=O)Nc2cc(-c3ccc4[nH]ncc4c3)cc3c2CNC3=O)c1 ... false
COc1ccc(NC(=O)/C=C/c2ccccc2Cl)cc1OCCN1CCC(c2nc3ccccc3[nH]2)CC1 ... false
CN(CCc1ccccn1)Cc1ccc(-c2ccc(-c3nc4ccccc4[nH]3)s2)cc1 ... false
CN1C(C)(C)CC(NC(=O)c2ccc(-c3nc4ccc(Cl)cc4[nH]3)cc2)CC1(C)C ... false
COc1ccc(NC(=O)c2ccc(-c3nc(-c4ccc(Cl)cc4)cs3)cc2)cc1N1CCN(C)CC1 ... false

Then there is this molecule:
Tell me the recorded outcome of this test for CN1CCN(c2ccc(-c3cc(-c4ccncc4)c(-c4ccc(Cl)c(O)c4)o3)cc2)CC1 .
false

====

assay: antimalarial activity against Dd2 strain (AID 2302);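 further: 0% = DMSO untreated growth and 100% = chloroquine plus artemisinin killed control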; details: P. falciparum Dd2 in RBCs, LDH growth readout, 72 h; at 2 µM; stronger effect = higher value
The threshold is inclusive: growth inhibition of exactly 40% counts as Yes; values below receive No.

COc1ccc(Oc2ccc(-c3c(C)[nH]c(C)cc3=O)cc2)cc1 ... Yes
CCCCCCOc1ccc(C(=O)NCCCC2CCCN(CCCCCNC(=O)C=Cc3ccc(Cl)c(Cl)c3)C2)cc1 (stereo not given) ... No
Cc1cccc2[nH]c(-c3cccc(-c4ccc(NC(=O)CN5CCOCC5)cc4)c3)nc12 ... No
COc1cc(OC)c2c(C)cc(NCCCn3ccnc3)nc2c1 ... No
CC(=O)Nc1nc(C(=O)Nc2ccc(-c3ccc(-c4nc5ccc(F)cc5[nH]4)cc3)cc2)cs1 ... No

hey, is growth inhibition for this one >= 40%? CN1CCN(C(C(=O)NCc2cc(Cl)cc(Cl)c2)c2ccc(NC(=O)Nc3ccccc3)cc2)CC1 (stereo not given)
Yes

Same thing, different compound: NC(N)=NN=CC(=O)Nc1ccc(C(F)(F)F)cc1
No

Same thing, different compound: CS(=O)(=O)CCNCc1nc(-c2ccc3c(=O)[nH]cnc3c2)cs1
Yes

Same thing, different compound: CCSc1nnc(C2CCCN(CC(=O)Nc3cc(C(F)(F)F)ccc3Cl)C2)n1CC (stereo not given)
Yes

Same thing, different compound: CCC(C)NS(=O)(=O)c1ccc2nc(Nc3cccc(SC)c3)n(C(C)C(C)C)c2c1 (stereo not given)
Yes

Same thing, different compound: O=S(=O)(c1ccccc1)C1CC1
Yes

Same thing, different compound: CC(NC(=O)c1ccc(O)c(-c2ccc(Cl)c(Cl)c2)c1)C(=O)NCCN1CCCC1 (stereo not given)
No

Same thing, different compound: COc1ccc2nccc(N(C)CC3(O)CCN(CCc4ccc5c(c4)OCCO5)CC3)c2n1
Yes

====

Entries and their growth inhibition
assay: antimalarial activity against Dd2 strain (AID 2302);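 further: 0% = DMSO untreated growth and 100% = chloroquine plus artemisinin killed control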; conditions: P. falciparum Dd2 in RBCs, LDH growth readout, 72 h; at 2 µM; stronger effect = higher value
Express the result in % but write the number alone.

Consider the reported growth inhibition for these compounds:
COc1ccc(C(C(=O)NC2CCN(C[C@H](O)c3ccnc4ccc(OC)cc34)CC2)N2CCN(c3ccc([N+](=O)[O-])cc3)CC2)cc1 (some centres undefined) ... 80
COc1ccc2nccc([C@@H](O)CN3CCC(NC(=O)CCC(=O)c4cc(C(C)(C)C)ccc4OC)CC3)c2c1 ... 51
Cc1ccc(C2CCN(CCCCNC(=O)c3ccc(NC(=O)c4ccc(Cl)cc4)cc3)CC2)c(OCC2CC2)c1 ... 95
CCOC(=O)N1CCN(CCCCNc2c3ccc(Cl)cc3nc3ccc(OC)cc23)CC1 ... 98

Consider the compound shown here: CSCCCN1CCC(O)(c2ccc3oc(C(=O)Nc4ccc5sc(C)nc5c4)cc3c2)CC1 What is its recorded growth inhibition?
69

Same thing, different compound: Cc1ccc(Cn2c(N3CCC(C(=O)NCc4cccs4)CC3)nc3ccccc32)cc1
71

Same thing, different compound: CN1CCN(CCCN(Cc2ccc(-c3cccc(CNCc4ccc5c(c4)OCO5)c3)cc2)C(=O)NCCc2ccccc2)CC1
85

Same thing, different compound: O=C(c1ccc(O)c(-c2cc(Cl)cc(Cl)c2)c1)N(CCO)CCO
62

Same thing, different compound: c1cncc(CN2CCN(Cc3ccc(-c4ccc(-c5nc6ccccc6[nH]5)s4)cc3)CC2)c1
34

====

experiment: inhibition of 3D7 malaria parasite growth – strain 3D7 (AID 2306);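 further: 0% = DMSO wells and 100% = chloroquine plus artemisinin control wells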; conditions: P. falciparum 3D7 erythrocytic growth, LDH absorbance, 72 h; at 2 µM; stronger effect = higher value
Calls of active or inactive are those of the source. The rule behind the calls is not given here.
metric-name: growth inhibition

CC(C)C(C(=O)n1ncc2c3c(N)nc(N)nc3ccc21)C(C)C ... 98% (active)

Consider the compound shown here: CCOc1c(CNCCCCCCNCc2ccc3ccccc3c2OCC)ccc2ccccc12 What is its recorded growth inhibition?
99% (active)

Same thing, different compound: CNC(=O)c1cncc(/C=C/c2ccccc2S(N)(=O)=O)c1
100% (active)

Same thing, different compound: CCNC(=O)Nc1cccc(-c2cccc(-c3nc4ccc(C(F)(F)F)cc4[nH]3)c2)c1
91% (active)

Same thing, different compound: Cc1ccc(NC(=O)c2ccc(CN3CCCN(CCC(C)C)CC3)cc2)cc1C
92% (active)

====

assay: HepG2 cytotoxicity, primary screen, cytotoxicity control for P. falciparum antimalarial project, cell-based, ATP luminescence (AID 2303); details: HepG2 viability, 24-48 h, at 10 µM, stronger effect = higher value;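 further: 0% = DMSO wells and 100% = digitonin-killed cells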
Entries and their inhibition
Express the result in % but write the number alone.

NC1=NC(Cc2ccccc2)N(c2ccc(Cl)cc2)C(N)=N1 (stereo not given) ... 21
Cc1cccc2[nH]c(-c3cccc(-c4ccc(CNCCc5ccncc5)cc4)c3)nc12 ... 40
COc1ccc(NS(=O)(=O)c2ccccc2Br)cc1N1CCN(C)CC1 ... 2
O=C(Nc1ccc(-c2oc(C(=O)NCCc3cccc(Cl)c3)cc2-c2ccncc2)cc1)Nc1cccc(Cl)c1 ... 13

Would you kindly look at the next entry?
Consider the molecule shown here: Cc1ccc(C)c(C2CCN(CCCCNC(=O)c3ccc(NC(=O)c4ccc(Cl)cc4)cc3)CC2)c1 What is its recorded inhibition?
15

====

target: Protein kinase 7 (PK7), Plasmodium falciparum 3D7 (PF3D7_0213400) (UniProt Q7YTF7); assay: inhibition of Plasmodium PK7 catalytic activity – biochemical, TCAMS antimalarial set, Kinase-Glo luminescence (AID 1159587); conditions: recombinant PfPK7, Kinase-Glo ATP depletion luminescence
The source made the active and inactive calls. How the calls were made is not given here.
metric-name: outcome

Consider the reported outcome for these compounds:
Cc1cccc2[nH]c(-c3cccc(-c4cccc(NC(=O)Nc5ccc(Cl)c(Cl)c5)c4)c3)nc12 ... inactive
COc1ccc(Nc2ncc3c(-c4cccc(NC(=O)Cc5ccncc5)c4)c[nH]c3n2)cc1OC ... inactive
CC(=O)Nc1ccc(CN2CCC(NC(=O)c3ccc(-c4cccc(OC(C)C)c4)s3)CC2)cc1 ... inactive
COc1ccc(CCCN2C(=O)C(c3ccccc3)(c3ccccc3)N=C2N)cc1 ... inactive
COc1cccc(C(=O)NCc2cccs2)c1OCc1ccccc1 ... inactive
CC(C)OC(=O)c1ccccc1S(N)(=O)=O ... inactive

Consider the compound shown here: Fc1ccc2nc(-c3ccc(-c4ccc(CNCC5CCCO5)cc4)s3)[nH]c2c1 (stereo not given) What is its recorded outcome?
inactive

Same thing, different compound: CC(C)(C)c1ccc(CNC(=O)COc2ccc(-c3nnc(-c4cccc([N+](=O)[O-])c4)o3)cc2[N+](=O)[O-])cc1
inactive

Same thing, different compound: CC1(C)N=C(N)N=C(N)N1OCCSc1ccccc1
inactive

Same thing, different compound: CCCNC(=O)c1ccc(N2CCC(c3ccccc3C)CC2)nc1
inactive

Origin of the recorded values: PubChem BioAssay
